targetEntity: Tyrosine-protein phosphatase non-receptor type 2 (Homo sapiens)
Sequence (P17706 whole entry): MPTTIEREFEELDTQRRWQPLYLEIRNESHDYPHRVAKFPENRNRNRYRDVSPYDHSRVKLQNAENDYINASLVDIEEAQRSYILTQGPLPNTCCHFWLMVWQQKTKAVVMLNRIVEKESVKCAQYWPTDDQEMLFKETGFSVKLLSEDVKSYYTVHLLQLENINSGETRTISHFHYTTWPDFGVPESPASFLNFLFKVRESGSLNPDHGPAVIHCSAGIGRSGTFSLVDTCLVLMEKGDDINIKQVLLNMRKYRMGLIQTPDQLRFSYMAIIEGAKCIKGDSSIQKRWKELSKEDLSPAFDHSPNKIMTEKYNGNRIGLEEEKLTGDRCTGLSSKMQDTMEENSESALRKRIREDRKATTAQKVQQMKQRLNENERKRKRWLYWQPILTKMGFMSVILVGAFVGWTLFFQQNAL
observable: Ki (nM)
Give bare numbers, in nM.

# example entries with known answers
compound | Ki (nM)
Cc1cc(O)nc(Nc2cc(O)c(N3CC(=O)NS3(=O)=O)c(F)c2)n1 | 1
CCc1ccc(C(=O)NCCCC[C@H](NC(=O)[C@H](Cc2ccc(C(F)(F)P(=O)(O)O)cc2)NC(=O)[C@@H](CC(=O)COC2CC(C)CCC2C(C)C)Cc2ccccc2)C(N)=O)cc1 (some centres not stated) | 4.3
CC1CCN=C(Nc2cc(O)c(N3CC(=O)NS3(=O)=O)c(F)c2)N1 (configuration not stated) | 5

Query string: So what's the measured Ki for this one? O=C1CN(c2c(O)cc(NC3=NCCCN3)cc2F)S(=O)(=O)N1
Result string: 5

----------
targetEntity: Tyrosine-protein phosphatase non-receptor type 2 (Homo sapiens)
observable: pIC50
Numbers only, as −log10 of the molar value.

compound | pIC50
CC(C)CCN[C@@H]1COc2cc(O)c(N3CC(=O)NS3(=O)=O)c(F)c2C1 | 7.80
O=C1CN(c2c(O)cc3c(c2F)C[C@H](NCCCC(F)F)CO3)S(=O)(=O)N1 | 8.05
CC(C)CCN[C@@H]1CSc2cc(O)c(N3CC(=O)NS3(=O)=O)c(F)c2C1 | 8.87
O=C1CN(c2c(O)cc3c(c2F)C[C@H](NCCCC(F)F)CS3)S(=O)(=O)N1 | 8.59

Query string: Bench note: what pIC50 did O=C1CN(c2c(O)cc3c(c2F)CC(CNCCC(F)F)N3)S(=O)(=O)N1 (stereo unspecified) show?
Result string: 7.82

----------
methodSummary: cells
statedConditions: Homo sapiens, B16
Description: Inhibition of PTPN2/PTPN1 (unknown origin) in mouse B16 cells assessed as inhibition of IFNgamma-mediated STAT1 phosphorylation
observable: pEC50
One number for each entry, as −log10 of the molar value.

Query string: For the compound shown here, CC(C)CCN[C@@H]1CCc2cc(O)c(N3CC(=O)NS3(=O)=O)c(F)c2C1 [OSUNPROTAFIB] , give the reported pEC50.
Result string: 6.74

----------
targetEntity: Tyrosine-protein phosphatase non-receptor type 1 (Homo sapiens, UniProt P18031)
Sequence (P18031 whole entry): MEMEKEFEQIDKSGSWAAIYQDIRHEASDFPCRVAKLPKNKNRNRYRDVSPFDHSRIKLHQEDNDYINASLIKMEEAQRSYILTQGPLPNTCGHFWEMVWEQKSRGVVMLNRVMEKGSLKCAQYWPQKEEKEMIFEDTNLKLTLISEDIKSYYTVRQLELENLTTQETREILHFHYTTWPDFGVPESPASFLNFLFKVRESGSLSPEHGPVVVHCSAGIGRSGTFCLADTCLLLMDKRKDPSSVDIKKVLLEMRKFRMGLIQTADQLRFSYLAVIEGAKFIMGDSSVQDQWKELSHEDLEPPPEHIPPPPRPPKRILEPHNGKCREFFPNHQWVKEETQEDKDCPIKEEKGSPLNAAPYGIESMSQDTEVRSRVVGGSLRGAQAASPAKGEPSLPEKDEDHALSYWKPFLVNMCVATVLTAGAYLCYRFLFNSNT
observable: Ki (nM)
Numbers only, in nM.

Query string: Entry CCc1ccc(C(=O)NCCCC[C@H](NC(=O)[C@H](Cc2ccc(C(F)(F)P(=O)(O)O)cc2)NC(=O)[C@@H](CC(=O)COC2CC(C)CCC2C(C)C)Cc2ccccc2)C(N)=O)cc1 (stereo partly specified) : reported Ki = ?
Result string: 34
